Hi there, I'd appreciate the recorded pEC50 for every entry that follows.
- tgt: human recombinant 5-HT1A receptor (Homo sapiens (Human), UniProt P08908)
- Sequence (P08908 whole entry): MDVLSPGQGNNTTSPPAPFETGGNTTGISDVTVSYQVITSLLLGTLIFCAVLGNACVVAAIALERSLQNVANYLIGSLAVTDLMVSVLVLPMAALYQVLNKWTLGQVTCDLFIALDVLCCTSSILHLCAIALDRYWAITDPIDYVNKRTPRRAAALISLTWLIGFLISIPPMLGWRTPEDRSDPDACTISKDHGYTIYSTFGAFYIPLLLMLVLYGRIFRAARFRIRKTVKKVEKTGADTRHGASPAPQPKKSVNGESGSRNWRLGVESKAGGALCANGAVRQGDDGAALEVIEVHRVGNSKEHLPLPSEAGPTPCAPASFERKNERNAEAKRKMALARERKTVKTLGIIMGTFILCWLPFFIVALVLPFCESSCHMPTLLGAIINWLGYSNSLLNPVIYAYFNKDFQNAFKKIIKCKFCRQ
- protocol-notes: 5-HT1A receptor agonism activity test (inhibition of cAMP production, LANCE cAMP 384 Kit)
- Type: cell-based
- measurement-parameters: HEK293 cells expressing human recombinant 5-HT1A receptor; test concentration 0.1 nM-10000 nM; read-out: 5-HT1A receptor agonism (EC50, mol/L)
One number for each entry, as −log10 of the molar value.

Previously resolved entries follow.
compound	measured-result
CN1C(=O)COc2ccc(CCN3CCN(c4cccc5sccc45)CC3)cc21	8.09
CN1C(=O)CCc2ccc(CCN3CCN(c4cccc5sccc45)CC3)cc21	8.07
CC(=O)n1cc(CCCCN2CCN(c3cccc4sccc34)CC2)c2cc(C#N)ccc21	7.08
CC(=O)Nc1nc2cc(CCN3CCN(c4cccc5sccc45)CC3)ccc2s1	9.22
O=C1CCc2cc(CCCCN3CCC(c4cccc5sccc45)CC3)ccc2N1	7.91
O=C1Cc2cc(CCCCN3CCN(c4cccc5sc(F)cc45)CC3)ccc2N1	7.77
CC(=O)Nc1nc2ccc(CCN3CCN(c4cccc5sccc45)CC3)cc2s1	8.63
Cn1c(=O)[nH]c2ccc(CCN3CCN(c4cccc5sccc45)CC3)cc21	7.67
O=C1Cc2cc(CCN3CCN(c4cccc5c4CCS5)CC3)c(Cl)cc2N1	8.48
O=c1ccc2ccc(CCN3CCN(c4cncc5sccc45)CC3)cc2[nH]1	8.91

Required: pEC50, one value per compound below.
1. COC(CN1CCN(c2cccc3sccc23)CC1)c1cccc2c1OCC(=O)N2 (stereo not drawn)
2. O=C1Cc2cc(CCN3CCN(c4cccc5sc(F)cc45)CC3)c(Cl)cc2N1
3. O=C1Cc2cc(CCN3CCN(c4cccc5sc(F)cc45)CC3)ccc2N1
4. N#Cc1ccc2[nH]cc(CCCCN3CCN(c4cccc5sccc45)CC3)c2c1

**A:**
1. 8.05
2. 8.04
3. 9.11
4. 8.01

* * *

- tgt: human recombinant 5-HT2A receptor (Homo sapiens (Human), UniProt P28223)
- Sequence (P28223 whole entry): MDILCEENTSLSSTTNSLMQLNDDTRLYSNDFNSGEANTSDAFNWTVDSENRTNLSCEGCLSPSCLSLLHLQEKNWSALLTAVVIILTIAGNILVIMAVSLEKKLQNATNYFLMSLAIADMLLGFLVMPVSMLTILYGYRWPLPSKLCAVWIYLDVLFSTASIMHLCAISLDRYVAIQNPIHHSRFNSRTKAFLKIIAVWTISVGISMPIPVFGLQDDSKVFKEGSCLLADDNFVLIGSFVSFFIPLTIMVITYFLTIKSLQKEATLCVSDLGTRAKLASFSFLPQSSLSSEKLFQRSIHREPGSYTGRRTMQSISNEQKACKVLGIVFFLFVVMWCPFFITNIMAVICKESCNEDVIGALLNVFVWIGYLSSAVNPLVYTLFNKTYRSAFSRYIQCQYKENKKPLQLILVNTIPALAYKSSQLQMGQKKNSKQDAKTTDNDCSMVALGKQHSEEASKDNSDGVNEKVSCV
- protocol-notes: 5-HT2A receptor antagonism activity test (FLIPR Calcium 5 Assay Kit)
- measurement-parameters: read-out: 5-HT2A receptor antagonism (IC50, mol/L); CHO-K1 cells expressing human recombinant 5-HT2A receptor; α-methyl-5-hydroxytryptamine 300 nM; 0.1 nM-10000 nM
pIC50: −log10 of the molar value.
# cutoff 7 applies to pIC50; >= gives yes, < gives no

Examples from the recorded data:
compound	class-assignment
O=c1[nH]c(CCN2CCN(c3cccc4sccc34)CC2)nc2ccccc12	yes
O=C1N[C@@H]2[C@@H](CS[C@@H]2CCCCCN2CCN(c3cccc4sccc34)CC2)N1	yes

**Q:** Assess whether reported pIC50 for O=C1Cc2cc(C(O)CN3CCN(c4cccc5sccc45)CC3)ccc2N1 (centres unmarked) sits at 7 or higher.
**A:** yes

**Q:** Assess whether reported pIC50 for O=C1CCc2cc(CCCCN3CCN(c4cccc5sc(F)cc45)CC3)ccc2N1 sits at 7 or higher.
**A:** no

**Q:** Assess whether reported pIC50 for O=C1Cc2cc(CCCCN3CCN(c4cccc5sc(F)cc45)CC3)ccc2N1 sits at 7 or higher.
**A:** no

**Q:** Assess whether reported pIC50 for O=C1CCc2cc(CCN3CCC(c4cccc5sccc45)CC3)ccc2N1 sits at 7 or higher.
**A:** no

* * *

- tgt: human recombinant 5-HT2A receptor (Homo sapiens (Human))
- protocol-notes: 5-HT2A receptor antagonism activity test (FLIPR Calcium 5 Assay Kit)
- measurement-parameters: read-out: 5-HT2A receptor antagonism (IC50, mol/L); CHO-K1 cells expressing human recombinant 5-HT2A receptor; α-methyl-5-hydroxytryptamine 300 nM; 0.1 nM-10000 nM
assay-readout: log10(IC50) (log10 of the value in nM)
Field: value | Transform: log10 | Quantity: IC50 | Unit: nM

Previously resolved entries follow.
molecule	measured-result
O=C1COc2cc(F)c(CCN3CCN(c4cccc5sccc45)CC3)cc2N1	1.91
O=C1Cc2cc(CCN3CCN(c4cccc5sc(F)cc45)CC3)c(Cl)cc2N1	2.85
N#Cc1ccc2[nH]cc(CCCN3CCN(c4cccc5sccc45)CC3)c2c1	2.91

Required: log10(IC50), one value per molecule below.
1. O=c1ccc2ccc(CCCCN3CCN(c4cccc5sccc45)CC3)cc2[nH]1
2. N#Cc1ccc2[nH]cc(CCN3CCN(c4cccc5sccc45)CC3)c2c1
3. COc1ccc2[nH]cc(CCCCN3CCN(c4cccc5sccc45)CC3)c2c1
4. CN1C(=O)COc2ccc(CCN3CCN(c4cccc5sccc45)CC3)cc21
5. O=C1CCc2ccc(C(O)CCCCN3CCN(c4cccc5sccc45)CC3)cc2N1 (stereo not shown)

**A:**
[2.39, 2.30, 2.59, 2.66, 2.03]

Required: log10(IC50), one value per molecule below.
1. O=C1COc2ccc(CCN3CCC(c4cccc5sccc45)CC3)cc2N1
2. O=C1COc2ccc(CCN3CCN(c4cc(F)cc5sccc45)CC3)cc2N1

**A:**
1: 2.24; 2: 2.52

* * *

- System: PCP-induced hyperactivity in mice
- protocol-notes: In vivo efficacy test (PCP-induced high locomotor activity in mice)
- measurement-parameters: male ICR mice, oral administration 45 minutes before PCP 7 mg/kg i.p.; dose significantly reducing PCP-induced hyperactivity vs model group
- Description: 5) In Vivo Efficacy Test (PCP-Induced High Locomotor Activity in Mice) PCP solution was prepared in a suitable concentration for 7 mg/kg dosage with saline. […] Male ICR mice (18-22 g) were used as test animals. […] The mice track after drug or saline administration was recorded and analyzed by the spontaneous, open-field video analysis system. […] The mice track was recorded and analyzed by the spontaneous, open-field video analysis system. […]
Hi there, I'd appreciate the recorded Effective dose for every entry that follows.
Answers are plain numbers, in mg/kg.

structure-string	Effective dose (mg/kg)
O=C1CCc2ccc(CCN3CCN(c4cccc5sccc45)CC3)cc2N1	0.1

Required: Effective dose, one value per compound below.
1. O=C1COc2ccc(CCN3CCN(c4cc(F)cc5sccc45)CC3)cc2N1
2. O=C1CCc2ccc(CCN3CCN(c4cc(F)cc5sccc45)CC3)cc2N1

**A:**
1: 3; 2: 1

* * *

- System: PCP-induced hyperactivity in mice
- protocol-notes: In vivo efficacy test (PCP-induced high locomotor activity in mice)
- measurement-parameters: male ICR mice, oral administration 45 minutes before PCP 7 mg/kg i.p.; dose significantly reducing PCP-induced hyperactivity vs model group
assay-readout: Effective dose (mg/kg)
Numbers only, in mg/kg.

Previously resolved entries follow.
compound	measured-result
Cc1nc2n(c(=O)c1CCN1CCN(c3cccc4sc(F)cc34)CC1)CCCC2O.Cl (stereo not shown) [Compound of example 131]	3
O=C1COc2c(F)cc(CCCCN3CCN(c4cccc5sccc45)CC3)cc2N1 [Compound of example 72]	3
Cl.O=S1(=O)NCCc2ccc(CCN3CCN(c4cccc5sccc45)CC3)cc21 [Compound of example 81]	1
O=C1Cc2cc(CCCCN3CCN(c4cccc5sccc45)CC3)ccc2N1 [Compound of example 112]	1
O=C1CSc2ccc(CCN3CCN(c4cccc5sccc45)CC3)cc2N1 [Compound of example 31]	1

Required: Effective dose, one value per compound below.
1. O=C1CCc2ccc(OCCCCN3CCN(c4cccc(Cl)c4Cl)CC3)cc2N1 [aripiprazole, reference compound]
2. Cc1nc2ccc(CCN3CCN(c4cccc5sccc45)CC3)cc2c(=O)[nH]1 [Compound of example 80]

**A:**
[3, 1]

Required: Effective dose, one value per compound below.
1. Cl.S=C1CCc2ccc(CCN3CCN(c4cccc5sccc45)CC3)cc2N1 [Compound of example 133]
2. O=C1CCc2ccc(CCN3CCC(c4cccc5sccc45)CC3)cc2N1 [Compound of example 83]
3. O=c1[nH]c2ccc(CCN3CCN(c4cccc5sc(F)cc45)CC3)cc2[nH]1 [Compound of example 77]
4. Cl.O=c1[nH]c2ccc(CCN3CCN(c4cccc5sccc45)CC3)cc2s1 [Compound of example 29]
5. Cl.Cn1c(=O)n(C)c2cc(CCN3CCN(c4cccc5sccc45)CC3)ccc21 [Compound of example 87]
6. O=c1ccc2ccc(CCCCCN3CCN(c4cc(F)cc5sccc45)CC3)cc2[nH]1 [Compound of example 71]

**A:**
1
1
3
0.3
1
3

Required: Effective dose, one value per compound below.
1. CN1Cc2cc(CCN3CCN(c4cccc5sccc45)CC3)ccc2NC1=O [Compound of example 51]
2. O=C1Cc2cc(CCN3CCC(c4cccc5sccc45)CC3)ccc2N1 [Compound of example 82]
3. O=c1ccc2ccc(CCN3CCN(c4cc(F)cc5sccc45)CC3)cc2[nH]1 [Compound of example 102]

**A:**
1. 1
2. 1
3. 3

* * *

Hi there, I'd appreciate the recorded IC50 for every entry that follows.
- tgt: human recombinant 5-HT2A receptor (Homo sapiens (Human), UniProt P28223)
- protocol-notes: 5-HT2A receptor antagonism activity test (FLIPR Calcium 5 Assay Kit)
- measurement-parameters: read-out: 5-HT2A receptor antagonism (IC50, mol/L); CHO-K1 cells expressing human recombinant 5-HT2A receptor; α-methyl-5-hydroxytryptamine 300 nM; 0.1 nM-10000 nM
Form entry: enter the amount, then its unit.

structure-string	assay-readout	measured-result
O=C1Cc2cc(CCN3CCC(c4cccc5sccc45)CC3)ccc2N1	IC50	11.5 nM
O=c1ccc2ccc(CCN3CCN(c4cncc5sccc45)CC3)cc2[nH]1	IC50	286 nM
O=C1Cc2cc(CCCCN3CCN(c4cccc5sccc45)CC3)ccc2N1	IC50	257 nM
COc1ccc2[nH]cc(CCCN3CCN(c4cccc5sccc45)CC3)c2c1	IC50	662 nM
O=C1Cc2cc(CCN3CCN(c4cccc5c4CCS5)CC3)c(Cl)cc2N1	IC50	227 nM

Required: IC50, one value per compound below.
1. O=c1ccc2ccc(CCN3CCN(c4cc(F)cc5sccc45)CC3)cc2[nH]1
2. N#Cc1ccc2[nH]cc(CCCCN3CCN(c4cccc5sccc45)CC3)c2c1
3. COc1cc2c(N3CCN(CCc4ccc5c(c4)CCC(=O)N5)CC3)cccc2s1

**A:**
1900 nM
332 nM
1050 nM
